Attribute: pIC50
experimental target: mTOR (Homo sapiens, UniProt P42345)
Construct: FLAG; made in house
Sequence (P42345 1362-2549): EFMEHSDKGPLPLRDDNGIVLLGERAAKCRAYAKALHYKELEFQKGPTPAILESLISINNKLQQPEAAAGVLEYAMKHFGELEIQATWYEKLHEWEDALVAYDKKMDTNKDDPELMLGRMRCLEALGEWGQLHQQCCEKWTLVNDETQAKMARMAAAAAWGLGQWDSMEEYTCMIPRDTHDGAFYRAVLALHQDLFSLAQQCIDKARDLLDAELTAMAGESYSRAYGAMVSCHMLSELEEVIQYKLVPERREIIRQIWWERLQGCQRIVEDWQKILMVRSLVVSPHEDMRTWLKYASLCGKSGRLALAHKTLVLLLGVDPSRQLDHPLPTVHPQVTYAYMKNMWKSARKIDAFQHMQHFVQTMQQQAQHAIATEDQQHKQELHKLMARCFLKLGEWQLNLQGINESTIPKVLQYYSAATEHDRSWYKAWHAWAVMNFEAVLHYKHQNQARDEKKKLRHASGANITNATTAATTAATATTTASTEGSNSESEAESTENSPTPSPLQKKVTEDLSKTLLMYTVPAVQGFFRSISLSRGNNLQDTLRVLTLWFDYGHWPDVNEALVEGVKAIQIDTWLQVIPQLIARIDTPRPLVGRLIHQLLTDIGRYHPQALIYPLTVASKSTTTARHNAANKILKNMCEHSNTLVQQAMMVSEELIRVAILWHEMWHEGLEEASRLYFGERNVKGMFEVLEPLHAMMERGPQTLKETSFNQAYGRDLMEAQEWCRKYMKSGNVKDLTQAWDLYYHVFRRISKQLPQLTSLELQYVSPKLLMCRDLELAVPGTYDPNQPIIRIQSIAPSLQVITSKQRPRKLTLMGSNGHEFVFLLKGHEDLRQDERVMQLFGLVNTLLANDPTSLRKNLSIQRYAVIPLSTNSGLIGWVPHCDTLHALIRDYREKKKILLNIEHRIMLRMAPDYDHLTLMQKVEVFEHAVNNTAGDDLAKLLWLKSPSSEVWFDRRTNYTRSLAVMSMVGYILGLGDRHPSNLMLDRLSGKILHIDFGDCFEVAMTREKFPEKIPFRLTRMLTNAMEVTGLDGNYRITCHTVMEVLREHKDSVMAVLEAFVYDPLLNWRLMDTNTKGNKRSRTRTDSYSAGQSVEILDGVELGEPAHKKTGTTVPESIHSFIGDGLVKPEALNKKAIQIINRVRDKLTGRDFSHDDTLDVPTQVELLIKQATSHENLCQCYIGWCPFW
experiment summary: In Vitro mTOR Kinase Assay (Echo), Test (a)(ii)
Type: biochemical
reported conditions: read-out: mTOR Kinase Assay (Echo)
From the text: (a)(ii) In Vitro mTOR Kinase Assay (Echo) The assay used AlphaScreen technology (Gray et al., Analytical Biochemistry, 2003, 313: 234-245) to determine the ability of test compounds to inhibit phosphorylation by recombinant mTOR. A C-terminal truncation of mTOR encompassing amino acid residues 1362 to 2549 of mTOR (EMBL Accession No. L34075) was stably expressed as a FLAG-tagged fusion in HEK293 cells as described by Vilella-Bach et al., Journal of Biochemistry, 1999, 274, 4266-4272. […]
Please report pIC50 as the negative decimal logarithm of the molar concentration, giving only the number.

Q: Would you mind telling me what pIC50 value was observed for C[C@H]1COCCN1c1cc(C2(S(C)(=O)=O)CC2)nc(-c2ccc(NC(=O)NCc3ncn[nH]3)cc2)n1 [Example 2ag] ?
Ans: 7.83

Q: Then C[C@H]1COCCN1c1cc(C2(S(C)(=O)=O)CCCC2)nc(-c2ccc(NC(=O)NC3CCC3)cc2)n1 [Example 4d] ?
Ans: 8.00

Q: Same thing, different compound: C[C@H]1COCCN1c1cc(C2(S(C)(=O)=O)CC2)nc(-c2ccc(NC(=O)NCC(O)C(F)(F)F)cc2)n1 (stereo partly shown) [Example 2z]
Ans: 7.74

Q: Next compound up: CC(C)S(=O)(=O)C1(c2cc(N3CCOC[C@@H]3C)nc(-c3ccc(NC(=O)NCCN(C)C)cc3)n2)CC1 [Example 7g]
Ans: 6.68

Q: And for C[C@H]1COCCN1c1cc(C2(S(C)(=O)=O)CC2)nc(-c2ccc(NC(=O)NCC#N)cc2)n1 [Example 2af] ?
Ans: 7.34

Q: What do you have for CCS(=O)(=O)C1(c2cc(N3CCOC[C@@H]3C)nc(-c3ccc(NC(=O)NC(C)C)cc3)n2)CC1 [Example 11c] ?
Ans: 7.61

Q: Next entry: CN(C)CCNC(=O)Nc1ccc(-c2nc(N3CCOCC3)cc(C3(S(C)(=O)=O)CC3)n2)cc1 [Example 12f]
Ans: 7.22

----------
Known pIC50 of a selection of molecules
experimental target: mTOR (Homo sapiens)
Construct: FLAG; made in house
experiment summary: In Vitro mTOR Kinase Assay (Echo), Test (a)(ii)
Assay type: biochemical
reported conditions: table of enzyme assay Test (a)(ii); read-out: Test (a)(ii) IC50
// pIC50: -log10(molar conc.)

Completed entries (count: 10):
{"columns": ["molecule", "experimental target", "value measured"],
 "data": [
  ["O=C(NCCCO)Nc1ccc(-c2nc(N3CCOCC3)cc(C3(S(=O)(=O)c4ccccc4)CC3)n2)cc1 [Example 36dg]", "mTOR (Homo sapiens)", 7.79],
  ["C[C@H]1COCCN1c1cc(C2(S(=O)(=O)c3ccc(F)cc3)CCC2)nc(-c2ccc(NC(=O)NC(C)(C)CO)cc2)n1 [Example 65c]", "mTOR (Homo sapiens)", 7.82],
  ["C[C@H]1COCCN1c1cc(C2(S(=O)(=O)c3ccccc3)CCC2)nc(-c2ccc(NC(=O)NCCC#N)cc2)n1 [Example 36dt]", "mTOR (Homo sapiens)", 9.43],
  ["CNC(=O)Nc1ccc(-c2nc(N3CCOC[C@@H]3C)cc(C3(S(=O)(=O)c4c(F)cccc4F)CC3)n2)cc1 [Example 86]", "mTOR (Homo sapiens)", 8.61],
  ["C[C@H]1COCCN1c1cc(C2(S(=O)(=O)CCO)CC2)nc(-c2ccc(NC(=O)NC3CC3)cc2)n1 [Example 15]", "mTOR (Homo sapiens)", 8.81],
  ["C[C@H]1COCCN1c1cc(C2(S(=O)(=O)c3ccc(F)cc3)CCC2)nc(-c2ccc(NC(=O)NCCCO)cc2)n1 [Example 65a]", "mTOR (Homo sapiens)", 8.16],
  ["CCNC(=O)Nc1ccc(-c2nc(N3CCOC[C@@H]3C)cc(C3(S(=O)(=O)c4c(F)cccc4F)CC3)n2)cc1 [Example 86a]", "mTOR (Homo sapiens)", 8.28],
  ["C[C@H]1COCCN1c1cc(C2(S(=O)(=O)CCO)CC2)nc(-c2ccc(NC(=O)NC3(CO)CC3)cc2)n1 [Example 16i]", "mTOR (Homo sapiens)", 6.07],
  ["O=C(Nc1ccc(-c2nc(N3CCOCC3)cc(C3(S(=O)(=O)C4CC4)CC3)n2)cc1)NC1CC1 [Example 13]", "mTOR (Homo sapiens)", 8.45],
  ["CC[C@H]1COCCN1c1cc(C2(S(=O)(=O)c3ccccc3)CC2)nc(-c2ccc(NC(=O)N[C@H](C)CO)cc2)n1 [Example 74g]", "mTOR (Homo sapiens)", 8.36]
]}

Q: Entry C[C@H]1COCCN1c1cc(C2(S(=O)(=O)CCCO)CC2)nc(-c2ccc(NC(=O)NCC(F)F)cc2)n1 [Example 36cm] : reported pIC50 = ?
Ans: 8.02
